Molecular target: TRPML2 (Homo sapiens, UniProt Q8IZK6)
Construct: expressed in transfected cells
Sequence (Q8IZK6 whole entry): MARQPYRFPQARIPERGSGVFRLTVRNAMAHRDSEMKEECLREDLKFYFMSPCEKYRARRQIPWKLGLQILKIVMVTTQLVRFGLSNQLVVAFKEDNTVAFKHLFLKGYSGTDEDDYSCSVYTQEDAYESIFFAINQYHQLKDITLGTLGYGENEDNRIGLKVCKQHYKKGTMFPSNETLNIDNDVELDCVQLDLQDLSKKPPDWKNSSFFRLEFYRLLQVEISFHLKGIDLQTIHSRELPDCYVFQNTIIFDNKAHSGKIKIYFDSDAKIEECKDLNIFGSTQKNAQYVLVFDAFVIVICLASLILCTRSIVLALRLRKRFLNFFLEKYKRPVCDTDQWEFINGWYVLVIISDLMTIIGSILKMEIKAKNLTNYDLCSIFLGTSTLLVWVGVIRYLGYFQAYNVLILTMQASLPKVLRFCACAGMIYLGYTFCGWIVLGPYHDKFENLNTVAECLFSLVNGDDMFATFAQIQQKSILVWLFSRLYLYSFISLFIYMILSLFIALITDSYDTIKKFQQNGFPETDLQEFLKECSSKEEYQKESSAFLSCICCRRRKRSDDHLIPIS
Assay: Fluorescent TRPML2 assay (performed as for TRPML1, substituting the TRPML2 subtype)
Assay type: cell-based
Details: fluorescent calcium assay
pEC50: −log10 of the molar value.
Recorded pEC50 by entry

Previously resolved entries follow.
> print(dat)
                             compoundstring                          assayedtarget  readout     testvalue
1  C[C@H]1CN(C(=O)OC(C)(C)C)CCN1c1ncnc2c1c(N1CCCC1)cn2C1CCCCC1  TRPML2 (Homo sapiens, UniProt Q8IZK6)    pEC50  6.30 to 7.00
2  C[C@@H]1CN(C(=O)OC(C)(C)C)CCN1c1ncnc2c1c(C1CC1)cn2-c1cccc(OC(F)(F)F)c1  TRPML2 (Homo sapiens, UniProt Q8IZK6)    pEC50  6.30 to 7.00
3  C[C@H]1CN(C(=O)OC(C)(C)C)CCN1c1ncnc2c1c(-c1ccccc1F)cn2-c1cc(C#N)ccn1  TRPML2 (Homo sapiens, UniProt Q8IZK6)    pEC50        > 7.00

compound `C[C@@H]1CN(c2ncnc3c2c(-c2ccccc2F)cn3-c2cc(C#N)ccn2)CCN1C(=O)OCC(F)(F)F` , pEC50 observed: > 7.00
